Entry source: paper PMC10967822

# Test system: human red blood cells
# Experimental Details: Hemolytic assay
# Format: cell-based
# Measurement Parameters: 10% hemolytic activity, mean n = 2
Below, each entry is listed with its recorded Hemolysis HC10.
Property Measured: Hemolysis HC10

[[record]]
molecule = "COc1ccc2[nH]cc(C(=O)NCCCNCCCCNCCCNC(=O)c3c[nH]c4ccc(OC)cc34)c2c1 [Compound 14a]"
tested_system = "human red blood cells"
property_measured = "Hemolysis HC10"
observed = ">41 µM"

[[record]]
molecule = "Cc1cccc2c(C(=O)NCCCNCCCCCCCCCCCCNCCCNC(=O)c3c[nH]c4c(C)cccc34)c[nH]c12.O=C(O)C(F)(F)F.O=C(O)C(F)(F)F [Compound 18f]"
tested_system = "human red blood cells"
property_measured = "Hemolysis HC10"
observed = ">37 µM"

[[record]]
molecule = "COc1cccc2c(C(=O)NCCCNCCCCCCCCCCNCCCNC(=O)c3c[nH]c4c(OC)cccc34)c[nH]c12.O=C(O)C(F)(F)F.O=C(O)C(F)(F)F [Compound 17e]"
tested_system = "human red blood cells"
property_measured = "Hemolysis HC10"
observed = ">37 µM"

[[record]]
molecule = "O=C(NCCCNCCCCCCCNCCCNC(=O)c1c[nH]c2c(F)cccc12)c1c[nH]c2c(F)cccc12 [Compound 16c]"
tested_system = "human red blood cells"
property_measured = "Hemolysis HC10"
observed = ">40 µM"

[[record]]
molecule = "O=C(NCCCNCCCCCCNCCCNC(=O)c1c[nH]c2ccccc12)c1c[nH]c2ccccc12.O=C(O)C(F)(F)F.O=C(O)C(F)(F)F [Compound 12b]"
tested_system = "human red blood cells"
property_measured = "Hemolysis HC10"
observed = ">43 µM"

[[record]]
molecule = "COc1cccc2c(C(=O)NCCCNCCCCCCCCNCCCNC(=O)c3c[nH]c4c(OC)cccc34)c[nH]c12 [Compound 17d]"
tested_system = "human red blood cells"
property_measured = "Hemolysis HC10"
observed = ">38 µM"

[[record]]
molecule = "O=C(NCCCNCCCCCCNCCCNC(=O)c1c[nH]c2c(F)cccc12)c1c[nH]c2c(F)cccc12 [Compound 16b]"
tested_system = "human red blood cells"
property_measured = "Hemolysis HC10"
observed = ">41 µM"


---

# System: E. coli ATCC 25922
# Experimental Details: Erythromycin potentiation against E. coli
# Type: cell-based, Escherichia coli
# Measurement Parameters: erythromycin at 2 µg/mL (2.7 µM), mean n = 3
Decide using Erythro/Ec: concentration required to restore erythromycin activity (combination MIC): a value greater than or equal to 30 µM is YES, a smaller one is NO.

[[record]]
molecule = "COc1cccc2c(C(=O)NCCCNCCCCCCCCCCNCCCNC(=O)c3c[nH]c4c(OC)cccc34)c[nH]c12.O=C(O)C(F)(F)F.O=C(O)C(F)(F)F [Compound 17e]"
class_name = "YES"

[[record]]
molecule = "Cc1ccc2[nH]cc(C(=O)NCCCNCCCCCCCCCCNCCCNC(=O)c3c[nH]c4ccc(C)cc34)c2c1 [Compound 15e]"
class_name = "NO"

[[record]]
molecule = "O=C(NCCCNCCCCCCCCCCCCNCCCNC(=O)c1c[nH]c2ccccc12)c1c[nH]c2ccccc12.O=C(O)C(F)(F)F.O=C(O)C(F)(F)F [Compound 12f]"
class_name = "NO"

[[record]]
molecule = "O=C(NCCCNCCCCCCCNCCCNC(=O)c1c[nH]c2c(F)cccc12)c1c[nH]c2c(F)cccc12 [Compound 16c]"
class_name = "YES"

[[record]]
molecule = "Cc1ccc2[nH]cc(C(=O)NCCCNCCCCCCNCCCNC(=O)c3c[nH]c4ccc(C)cc34)c2c1 [Compound 15b]"
class_name = "YES"

[[record]]
molecule = "COc1cccc2c(C(=O)NCCCNCCCCCCCCCCCCNCCCNC(=O)c3c[nH]c4c(OC)cccc34)c[nH]c12.O=C(O)C(F)(F)F.O=C(O)C(F)(F)F [Compound 17f]"
class_name = "YES"

[[record]]
molecule = "Cc1cccc2c(C(=O)NCCCNCCCCCCCCCCNCCCNC(=O)c3c[nH]c4c(C)cccc34)c[nH]c12 [Compound 18e]"
class_name = "NO"

[[record]]
molecule = "COc1cccc2c(C(=O)NCCCNCCCCCCCNCCCNC(=O)c3c[nH]c4c(OC)cccc34)c[nH]c12.O=C(O)C(F)(F)F.O=C(O)C(F)(F)F [Compound 17c]"
class_name = "YES"

[[record]]
molecule = "Cc1cccc2c(C(=O)NCCCNCCCCCCCCNCCCNC(=O)c3c[nH]c4c(C)cccc34)c[nH]c12 [Compound 18d]"
class_name = "YES"

[[record]]
molecule = "O=C(NCCCNCCCCNCCCNC(=O)c1c[nH]c2c(F)cccc12)c1c[nH]c2c(F)cccc12 [Compound 16a]"
class_name = "YES"

[[record]]
molecule = "O=C(NCCCNCCCCCCCCCCNCCCNC(=O)c1c[nH]c2ccc(Br)cc12)c1c[nH]c2ccc(Br)cc12 [Compound 13e]"
class_name = "NO"

[[record]]
molecule = "O=C(NCCCNCCCCCCNCCCNC(=O)c1c[nH]c2ccc(Br)cc12)c1c[nH]c2ccc(Br)cc12 [Compound 13b]"
class_name = "NO"

